Entry source: ChEMBL document CHEMBL5154863

Kd values for the compounds below.
Protein target, amino acids: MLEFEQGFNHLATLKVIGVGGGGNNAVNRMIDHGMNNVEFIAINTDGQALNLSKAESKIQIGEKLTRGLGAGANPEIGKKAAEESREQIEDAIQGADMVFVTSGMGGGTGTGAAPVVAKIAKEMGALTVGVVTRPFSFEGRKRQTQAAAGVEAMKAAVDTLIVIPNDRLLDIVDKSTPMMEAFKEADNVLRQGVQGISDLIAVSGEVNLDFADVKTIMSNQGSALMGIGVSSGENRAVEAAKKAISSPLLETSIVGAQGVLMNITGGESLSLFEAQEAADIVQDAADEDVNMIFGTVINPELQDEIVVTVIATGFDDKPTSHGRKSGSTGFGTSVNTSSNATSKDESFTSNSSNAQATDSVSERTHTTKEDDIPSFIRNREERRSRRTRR
Write down the numeric answer in µM and omit the unit.

IN: If you can, please state the reported Kd value of CN(C)c1ccc(/C=C/c2cc(N3CCCCC3)c3ccccc3[n+]2C)cc1.[I-] .
OUT: 2.49

IN: Then what about the compound CCCCCNc1cc(/C=C/c2ccc(N(C)C)cc2)[n+](C)c2ccccc12.[I-] ?
OUT: 2.38

IN: Then what about the compound CC1CCN(c2cc(/C=C/c3ccc(N(C)C)cc3)[n+](C)c3ccccc23)CC1.[I-] ?
OUT: 3.84

IN: Then what about the compound CC1CCN(c2cc(/C=C/c3ccc(N(C)C)cc3)c3ccccc3[n+]2C)CC1.[I-] ?
OUT: 3.86

* * *

Tested on: Staphylococcus aureus
Experiment: Antibacterial activity against methicillin-resistant Staphylococcus aureus ATCC 43300 assessed as inhibition of bacterial growth incubated for 20 to 24 hrs by broth micro dilution method
Type: functional
Settings: time 20-24 hrs
value-type: log10 of MIC (log10 of the value in µg/mL)
Values are log10 of MIC in µg/mL.

These solved cases illustrate the format of a correct answer.
{"columns": ["smiles", "assayed-system", "recorded-measurement"],
 "data": [
  ["O=C(O)c1cn(C2CC2)c2cc(N3CCNCC3)c(F)cc2c1=O", "Staphylococcus aureus", 0.30],
  ["CN(C)c1ccc(/C=C/c2cc(NCCCc3ccccc3)[n+](C)c3ccccc23)cc1.[I-]", "Staphylococcus aureus", 0.60],
  ["CCCNc1cc(/C=C/c2ccc(N(C)C)cc2)[n+](C)c2ccccc12.[I-]", "Staphylococcus aureus", 0.90],
  ["CN(C)c1ccc(/C=C/c2cc(NCCCc3ccccc3)c3ccccc3[n+]2C)cc1.[I-]", "Staphylococcus aureus", 0.30],
  ["CC1CCN(c2cc(/C=C/c3ccc(N(C)C)cc3)[n+](C)c3ccccc23)CC1.[I-]", "Staphylococcus aureus", 0.00]
]}

IN: Kindly state the measured log10 of MIC obtained for CCCNc1cc(/C=C/c2ccc(N(C)C)cc2)c2ccccc2[n+]1C.[I-] with Staphylococcus aureus.
OUT: 1.51

IN: Then what about the molecule CN(C)c1ccc(/C=C/c2cc(N3CCOCC3)c3ccccc3[n+]2C)cc1.[I-] ?
OUT: 1.81

IN: Then what about the molecule CCCCCNc1cc(/C=C/c2ccc(N(C)C)cc2)[n+](C)c2ccccc12.[I-] ?
OUT: 0.30

IN: Then what about the molecule CN(C)c1ccc(/C=C/c2cc(N3CCCC3)c3ccccc3[n+]2C)cc1.[I-] ?
OUT: 0.30

IN: Then what about the molecule CN(C)c1ccc(/C=C/c2cc(NCCCO)c3ccccc3[n+]2C)cc1.[I-] ?
OUT: 1.81
